I'd be grateful if you could share measured percentage of EdU-negative for these entries.
test system: hTERT-HMEC; assay: percentage of EdU-negative (G0-arrested) nuclei per well, 72 h; higher = more G0 arrest; conditions: protein concentration 0.3125 µM; reference: sequence is the full UniProt precursor, the tested protein was the secreted form or ectodomain
Write the answer as a number in %, unit excluded.

Q: Answer with percentage of EdU-negative of "MIPGGLSEAKPATPEIQEIVDKVKPQLEEKTNETYGKLEAVQYKTQVVAGTNYYIKVRAGDNKYMHLKVFKSLPGQNEDLVLTGYQVDKNKDDELTGF" measured for hTERT-HMEC.
Ans: 5.5

Q: Answer with percentage of EdU-negative of "MQRLCVYVLIFALALAAFSEASWKPRSQQPDAPLGTGANRDLELPWLEQQGPASHHRRQLGPQGPPHLVADPSKKQGPWLEEEEEAYGWMDFGRRSAEDEN" measured for hTERT-HMEC.
Ans: 10.5

Q: Answer with percentage of EdU-negative of "MWKRWLALALALVAVAWVRAEEELRSKSKICANVFCGAGRECAVTEKGEPTCLCIEQCKPHKRPVCGSNGKTYLNHCELHRDACLTGSKIQVDYDGHCKEKKSVSPSASPVVCYQSNRDELRRRIIQWLEAEIIPDGWFSKGSNYSEILDKYFKNFDNGDSRLDSSEFLKFVEQNETAINITTYPDQENNKLLRGLCVDALIELSDENADWKLSFQEFLKCLNPSFNPPEKKCALEDETYADGAETEVDCNRCVCACGNWVCTAMTCDGKNQKGAQTQTEEEMTRYVQELQKHQETAEKTKRVSTKEI" measured for hTERT-HMEC.
Ans: 5.53

Q: Answer with percentage of EdU-negative of "MALSFSLLMAVLVLSYKSICSLGCDLPQTHSLGNRRALILLAQMGRISHFSCLKDRHDFGFPEEEFDGHQFQKAQAISVLHEMIQQTFNLFSTEDSSAAWEQSLLEKFSTELYQQLNDLEACVIQEVGVEETPLMNEDSILAVRKYFQRITLYLTEKKYSPCAWEVVRAEIMRSLSFSTNLQKRLRRKD" measured for hTERT-HMEC.
Ans: 13.8

###

I'd be grateful if you could share measured percentage of EdU-negative for these entries.
test system: hTERT-HMEC; test: percentage of EdU-negative (G0-arrested) nuclei per well, 72 h; higher = more G0 arrest; details: protein concentration 0.357143 µM; reference: sequence is the full UniProt precursor, the tested protein was the secreted form or ectodomain;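 also: secreted proteins added to cultured cells, EdU pulse at the end, nuclei found by Hoechst imaging, EdU status from nuclear versus surrounding ring intensity ratio, PBS as neutral control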
Write the answer as a number in %, unit excluded.

Q: Give the reported percentage of EdU-negative for this sequence. "MNRFLLLMSLYLLGSARGTSSQPNELSGSIDHQTSVQQLPGEFFSLENPSDAEALYETSSGLNTLSEHGSSEHGSSKHTVAEHTSGEHAESEHASGEPAATEHAEGEHTVGEQPSGEQPSGEHLSGEQPLSELESGEQPSDEQPSGEHGSGEQPSGEQASGEQPSGEHASGEQASGAPISSTSTGTILNCYTCAYMNDQGKCLRGEGTCITQNSQQCMLKKIFEGGKLQFMVQGCENMCPSMNLFSHGTRMQIICCRNQSFCNKI"
Ans: 9.78

Q: Give the reported percentage of EdU-negative for this sequence. MLTTLLPILLLSGWAFCSQDASDGLQRLHMLQISYFRDPYHVWYQGNASLGGHLTHVLEGPDTNTTIIQLQPLQEPESWARTQSGLQSYLLQFHGLVRLVHQERTLAFPLTIRCFLGCELPPEGSRAHVFFEVAVNGSSFVSFRPERALWQADTQVTSGVVTFTLQQLNAYNRTRYELREFLEDTCVQYVQKHISAENTKGSQTSRSYTSLVLGVLVGSFIIAGVAVGIFLCTGGRRC [Q9UNN8]
Ans: 6.22
